Hey, just so you know, these numbers are from patent US12071411B2.

System: HIF-2α (Homo sapiens)
Sequence (Q99814 whole entry): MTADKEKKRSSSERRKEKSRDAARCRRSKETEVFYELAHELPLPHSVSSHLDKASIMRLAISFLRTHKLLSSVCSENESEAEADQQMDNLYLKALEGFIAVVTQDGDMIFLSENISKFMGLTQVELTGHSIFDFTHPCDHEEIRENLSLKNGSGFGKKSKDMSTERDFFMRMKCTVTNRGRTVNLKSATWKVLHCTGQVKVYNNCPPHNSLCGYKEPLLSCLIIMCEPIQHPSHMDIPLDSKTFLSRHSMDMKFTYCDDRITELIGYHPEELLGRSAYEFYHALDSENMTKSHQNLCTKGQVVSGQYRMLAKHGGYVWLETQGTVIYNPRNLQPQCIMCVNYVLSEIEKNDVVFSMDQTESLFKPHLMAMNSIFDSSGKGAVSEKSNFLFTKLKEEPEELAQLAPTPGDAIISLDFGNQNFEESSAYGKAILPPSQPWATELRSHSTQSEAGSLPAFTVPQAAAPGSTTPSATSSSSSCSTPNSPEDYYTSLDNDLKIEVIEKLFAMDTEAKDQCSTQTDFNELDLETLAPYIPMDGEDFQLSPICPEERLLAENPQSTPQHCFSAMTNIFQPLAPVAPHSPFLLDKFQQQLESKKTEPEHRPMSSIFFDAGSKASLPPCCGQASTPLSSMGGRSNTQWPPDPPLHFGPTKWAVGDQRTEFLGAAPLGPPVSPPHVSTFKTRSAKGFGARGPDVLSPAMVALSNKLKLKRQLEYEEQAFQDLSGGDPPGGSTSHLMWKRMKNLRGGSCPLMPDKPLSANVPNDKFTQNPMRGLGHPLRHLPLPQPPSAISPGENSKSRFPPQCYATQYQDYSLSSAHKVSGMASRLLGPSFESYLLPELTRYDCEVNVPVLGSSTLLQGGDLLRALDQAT
Test Details: HIF-2α Luciferase Reporter Assay (serum), HRE-luciferase 786-0 cells in 100% human serum
Format: cell-based
Run Conditions: ratio of IC50 in 100% serum to IC50 in serum free conditions; approximate
Observation Type: Serum Shift (approximate)

Solved entries (count: 2):
> print(dat)
                                   compound  value.observed
1  O[C@H]1c2c(C(F)(F)F)nn(CC3CC3(F)F)c2CCC1(F)F (single isomer, unassigned) [23/24 DIAST-2]              10
2  CO[C@H](CCn1nc(C(F)(F)F)c2c1[C@@H](F)C(F)(F)[C@H]2O)C(F)(F)F (single isomer, unassigned) [148/149 DIAST-2]              12

(1) O[C@H]1c2c(C(F)(F)F)nn([C@H]3CCC[C@H](C(F)(F)F)C3)c2CC1(F)F
(2) O[C@H]1c2c(C(F)(F)F)nn(CCCC(F)(F)F)c2CCC1(F)F
(3) O[C@H]1c2c(C(F)(F)F)nn([C@H]3CCCC(F)(F)C3)c2[C@@H](F)[C@H]1F (single isomer, unassigned) [136/137 DIAST-1]
(4) O[C@H]1c2c(C(F)(F)F)nn(CCCC(F)(F)F)c2CC[C@@H]1F
Highest Serum Shift (approximate) first, then in falling order down to the smallest. Reply with the labels, ordered as the question asks.
1, 2, 4, 3
(1: 49, 2: 12, 4: 7, 3: 4)

(P) O[C@H]1c2c(C(F)(F)F)nn([C@H]3C[C@@]4(CC4(F)F)C3)c2CC1(F)F
(Q) CC(CCn1nc(C(F)(F)F)c2c1CCC(F)(F)[C@H]2O)OC(F)F (some centres unmarked)
Please indicate which entry, P or Q , has the lower recorded Serum Shift (approximate) value. Returns: label corresponding to the selected item.
Q
(Q: 6, P: 12)
